Sourced from patent US20180353462A1

Listed here: items and their measured IC50.
- Experimental system: SIRT-3 (Homo sapiens, UniProt Q9NTG7)
- Sequence (Q9NTG7 whole entry): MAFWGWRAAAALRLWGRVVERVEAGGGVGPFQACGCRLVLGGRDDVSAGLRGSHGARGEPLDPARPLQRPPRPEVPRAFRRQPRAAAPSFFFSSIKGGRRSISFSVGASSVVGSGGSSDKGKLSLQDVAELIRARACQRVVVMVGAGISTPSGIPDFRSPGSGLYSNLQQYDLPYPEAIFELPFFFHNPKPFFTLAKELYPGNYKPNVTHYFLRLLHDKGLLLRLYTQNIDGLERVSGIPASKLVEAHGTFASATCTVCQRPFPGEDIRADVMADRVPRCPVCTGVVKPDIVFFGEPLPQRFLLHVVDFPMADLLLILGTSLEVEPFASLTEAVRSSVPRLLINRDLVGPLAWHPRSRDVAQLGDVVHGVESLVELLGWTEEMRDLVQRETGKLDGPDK
- Assay comment: Inhibition of sirtuins, SIRT-3
- Type: biochemical
- Condition: Table 3 SIRT
Assay readout: IC50 (µM)

>>> reported_result("COc1cc(-c2cc(=O)c3c(O)c(CC=C(C)C)c(O)cc3o2)ccc1O [FBL-03B]")
77
>>> reported_result("COc1cc(-c2cc(=O)c3c(O)c(C/C=C(\\C)CCC=C(C)C)c(O)cc3o2)ccc1O [FBL-03A]")
94.9
>>> reported_result("COc1cc(-c2cc(=O)c3c(O)cc(O)c(CC=C(C)C)c3o2)ccc1O [FBL-03G]")
66.4
>>> reported_result("COc1cc(-c2cc(=O)c3c(O)cc(O)c(C/C=C(\\C)CCC=C(C)C)c3o2)ccc1O [FBL-03C]")
65.4

---

Property: IC50; scope: individual molecules
- System: MiaPaca-2 (Pancreatic)
- Assay comment: WST-1 anticancer cell proliferation assay, MiaPaca-2
- Assay type: cell-based
- Condition: 72 hours
Assay readout: IC50 (µM)

>>> reported_result("COc1cc(-c2cc(=O)c3c(O)c(C/C=C(\\C)CCC=C(C)C)c(O)cc3o2)ccc1O [FBL-03A]")
16
>>> reported_result("COc1cc(-c2cc(=O)c3c(O)cc(O)c(C/C=C(\\C)CCC=C(C)C)c3o2)ccc1O [FBL-03C]")
9.5

---

- Experimental system: FLT3 (Homo sapiens, UniProt P36888)
- Construct: made in house
- Assay type: binding
- Condition: Table 4; read-out: Acute Myeloid Leukemia Kinases FLT3 IC50
pIC50: −log10 of the molar value.
Assay readout: pIC50

>>> reported_result("COc1cc(O)c2c(=O)c(O)c(-c3ccc(O)c(O)c3)oc2c1 [FBLGS-79]")
7.60
>>> reported_result("COc1cc(O)c2c(=O)c(O)c(-c3ccc(O)c(OC)c3)oc2c1 [FBLGS-80]")
7.22
>>> reported_result("COc1cc(-c2cc(=O)c3c(O)c(OC)c(O)cc3o2)ccc1O [FBLGS-86]")
7.13

---

- Experimental system: MELK (Homo sapiens)
- Construct: made in house
- Sequence (Q14680 whole entry): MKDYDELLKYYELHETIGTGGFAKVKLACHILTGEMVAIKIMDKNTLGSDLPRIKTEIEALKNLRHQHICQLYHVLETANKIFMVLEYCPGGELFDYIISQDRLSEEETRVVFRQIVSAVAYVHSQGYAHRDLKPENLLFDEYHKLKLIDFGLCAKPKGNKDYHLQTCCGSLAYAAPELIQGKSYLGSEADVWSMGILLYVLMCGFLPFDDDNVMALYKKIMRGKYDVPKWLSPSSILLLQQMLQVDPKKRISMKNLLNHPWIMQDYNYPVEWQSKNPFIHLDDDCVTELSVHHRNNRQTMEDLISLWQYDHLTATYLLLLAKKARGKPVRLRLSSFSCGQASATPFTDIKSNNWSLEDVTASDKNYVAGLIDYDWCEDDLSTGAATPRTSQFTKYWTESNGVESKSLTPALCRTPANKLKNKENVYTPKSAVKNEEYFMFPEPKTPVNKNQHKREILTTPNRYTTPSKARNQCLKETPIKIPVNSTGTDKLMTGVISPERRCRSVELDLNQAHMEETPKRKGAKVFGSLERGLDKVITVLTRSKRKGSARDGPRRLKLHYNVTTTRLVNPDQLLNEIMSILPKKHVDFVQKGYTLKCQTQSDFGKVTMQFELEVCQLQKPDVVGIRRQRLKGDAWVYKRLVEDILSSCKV
- Assay comment: Kinase competition binding assay, MELK
- Condition: Table 1 kinase panel
Assay readout: IC50 (nM)

>>> reported_result("COc1cc(-c2cc(=O)c3c(O)c(CC=C(C)C)c(O)cc3o2)ccc1O [FBL-03B]")
232
>>> reported_result("COc1cc(-c2cc(=O)c3c(O)cc(O)c(CC=C(C)C)c3o2)ccc1O [FBL-03G]")
105

---

Catalogue of IC50 readings, one per entry.
- Experimental system: FLT3(D835Y) (Homo sapiens, UniProt P36888, D835Y)
- Construct: made in house
- Format: binding
- Condition: Table 1 kinase panel; read-out: IC50 (nM) FLT3(D835Y)
Assay readout: IC50 (nM)

>>> reported_result("COc1cc(-c2cc(=O)c3c(O)cc(O)c(CC=C(C)C)c3o2)ccc1O [FBL-03G]")
45
>>> reported_result("COc1cc(-c2cc(=O)c3c(O)c(CC=C(C)C)c(O)cc3o2)ccc1O [FBL-03B]")
12.7

---

- Experimental system: DYRK1B (Homo sapiens, UniProt Q9Y463)
- Construct: made in house
- Sequence (Q9Y463 whole entry): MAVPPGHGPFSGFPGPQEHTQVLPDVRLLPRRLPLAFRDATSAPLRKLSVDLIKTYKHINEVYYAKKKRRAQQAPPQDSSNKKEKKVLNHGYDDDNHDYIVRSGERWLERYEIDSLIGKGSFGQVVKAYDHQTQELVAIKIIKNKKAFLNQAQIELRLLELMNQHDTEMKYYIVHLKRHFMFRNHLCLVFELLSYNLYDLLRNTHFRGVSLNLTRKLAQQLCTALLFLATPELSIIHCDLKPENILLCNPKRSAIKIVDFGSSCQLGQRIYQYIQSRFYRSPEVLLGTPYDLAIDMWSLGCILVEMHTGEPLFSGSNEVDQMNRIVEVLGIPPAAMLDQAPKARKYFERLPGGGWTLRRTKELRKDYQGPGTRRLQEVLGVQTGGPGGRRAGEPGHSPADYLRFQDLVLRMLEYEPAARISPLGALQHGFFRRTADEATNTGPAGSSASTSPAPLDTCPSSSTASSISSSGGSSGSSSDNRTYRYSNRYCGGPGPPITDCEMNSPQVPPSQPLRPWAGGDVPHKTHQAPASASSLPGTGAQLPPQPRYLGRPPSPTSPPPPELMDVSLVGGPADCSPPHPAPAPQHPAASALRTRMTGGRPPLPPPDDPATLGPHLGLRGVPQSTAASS
- Assay comment: Kinase competition binding assay, DYRK1B
- Condition: Table 1 kinase panel
We begin with a simple list: items and their reported IC50.
Assay readout: IC50 (nM)

>>> reported_result("COc1cc(-c2cc(=O)c3c(O)cc(O)c(C/C=C(\\C)CCC=C(C)C)c3o2)ccc1O [FBL-03C]")
6400
>>> reported_result("COc1cc(-c2cc(=O)c3c(O)cc(O)c(CC=C(C)C)c3o2)ccc1O [FBL-03G]")
22.8
>>> reported_result("COc1cc(-c2cc(=O)c3c(O)c(CC=C(C)C)c(O)cc3o2)ccc1O [FBL-03B]")
1670
